# condition: 319.15 K; 101.33 kPa; Liquid; Vibrating tube method
measured_endpoint: mass density (kg/m3)

> print(dat)
                              smiles.string  experimental.result
1  CCCCC[n+]1ccn(CCCC)c1.O=S(=O)([N-]S(=O)(=O)C(F)(F)F)C(F)(F)F               1298.8
2  CCCCn1cc[n+](CCC(C)C)c1.O=S(=O)([N-]S(=O)(=O)C(F)(F)F)C(F)(F)F               1299.6
3  CCCC[n+]1ccn(C2CCCC2)c1.O=S(=O)([N-]S(=O)(=O)C(F)(F)F)C(F)(F)F               1355.7
4  CCCCn1cc[n+](C(CC)CC)c1.O=S(=O)([N-]S(=O)(=O)C(F)(F)F)C(F)(F)F               1300.9

###

# condition: 337.15 K; 101.33 kPa; Liquid; Sing-around technique in a fixed-path interferometer
Examples of compounds with documented speed of sound follow.
measured_endpoint: speed of sound (m/s)

> print(dat)
                              smiles.string  measured.endpoint  experimental.result
1  CCCC[n+]1ccn(C2CCCC2)c1.O=S(=O)([N-]S(=O)(=O)C(F)(F)F)C(F)(F)F     speed of sound               1180.5
2  CCCCn1cc[n+](CCC(C)C)c1.O=S(=O)([N-]S(=O)(=O)C(F)(F)F)C(F)(F)F     speed of sound                 1130
3  CCCCn1cc[n+](C(CC)CC)c1.O=S(=O)([N-]S(=O)(=O)C(F)(F)F)C(F)(F)F     speed of sound                 1125
4  CCCCC[n+]1ccn(CCCC)c1.O=S(=O)([N-]S(=O)(=O)C(F)(F)F)C(F)(F)F     speed of sound               1127.3

###

# condition: 297.15 K; 101.33 kPa; Liquid; Sing-around technique in a fixed-path interferometer
Examples of compounds with documented speed of sound follow.
measured_endpoint: speed of sound (m/s)

> print(dat)
                              smiles.string  measured.endpoint  experimental.result
1  CCCCC[n+]1ccn(CCCC)c1.O=S(=O)([N-]S(=O)(=O)C(F)(F)F)C(F)(F)F     speed of sound                 1216
2  CCCCn1cc[n+](C(CC)CC)c1.O=S(=O)([N-]S(=O)(=O)C(F)(F)F)C(F)(F)F     speed of sound               1214.5
3  CCCC[n+]1ccn(C2CCCC2)c1.O=S(=O)([N-]S(=O)(=O)C(F)(F)F)C(F)(F)F     speed of sound               1273.4
4  CCCCn1cc[n+](CCC(C)C)c1.O=S(=O)([N-]S(=O)(=O)C(F)(F)F)C(F)(F)F     speed of sound               1219.8

###

# condition: 307.15 K; 101.33 kPa; Liquid; Vibrating tube method
measured_endpoint: mass density (kg/m3)

> print(dat)
                              smiles.string  measured.endpoint  display.unit  experimental.result
1  CCCCC[n+]1ccn(CCCC)c1.O=S(=O)([N-]S(=O)(=O)C(F)(F)F)C(F)(F)F       mass density         kg/m3               1309.4
2  CCCCn1cc[n+](C(CC)CC)c1.O=S(=O)([N-]S(=O)(=O)C(F)(F)F)C(F)(F)F       mass density         kg/m3               1311.5
3  CCCCn1cc[n+](CCC(C)C)c1.O=S(=O)([N-]S(=O)(=O)C(F)(F)F)C(F)(F)F       mass density         kg/m3               1310.2
4  CCCC[n+]1ccn(C2CCCC2)c1.O=S(=O)([N-]S(=O)(=O)C(F)(F)F)C(F)(F)F       mass density         kg/m3               1366.5

###

Examples of compounds with documented molar heat capacity at constant pressure follow.
# assay: molar heat capacity at constant pressure
# condition: 307.15 K; 101.33 kPa; Liquid; DSC
± gives the expanded uncertainty stated by the source.
measured_endpoint: molar heat capacity at constant pressure

> print(dat)
                              smiles.string                         measured.endpoint  experimental.result
1  CCCC[n+]1ccn(C2CCCC2)c1.O=S(=O)([N-]S(=O)(=O)C(F)(F)F)C(F)(F)F  molar heat capacity at constant pressure  658.43 ± 26 J/K/mol
2  CCCCn1cc[n+](C(CC)CC)c1.O=S(=O)([N-]S(=O)(=O)C(F)(F)F)C(F)(F)F  molar heat capacity at constant pressure  703.46 ± 27 J/K/mol
3  CCCCn1cc[n+](CCC(C)C)c1.O=S(=O)([N-]S(=O)(=O)C(F)(F)F)C(F)(F)F  molar heat capacity at constant pressure  692.19 ± 27 J/K/mol
4  CCCCC[n+]1ccn(CCCC)c1.O=S(=O)([N-]S(=O)(=O)C(F)(F)F)C(F)(F)F  molar heat capacity at constant pressure  693.52 ± 27 J/K/mol

###

Examples of compounds with documented speed of sound follow.
# condition: 311.15 K; 101.33 kPa; Liquid; Sing-around technique in a fixed-path interferometer
measured_endpoint: speed of sound (m/s)

> print(dat)
                              smiles.string  measured.endpoint  experimental.result
1  CCCC[n+]1ccn(C2CCCC2)c1.O=S(=O)([N-]S(=O)(=O)C(F)(F)F)C(F)(F)F     speed of sound                 1240
2  CCCCn1cc[n+](CCC(C)C)c1.O=S(=O)([N-]S(=O)(=O)C(F)(F)F)C(F)(F)F     speed of sound               1187.5
3  CCCCn1cc[n+](C(CC)CC)c1.O=S(=O)([N-]S(=O)(=O)C(F)(F)F)C(F)(F)F     speed of sound               1182.1
4  CCCCC[n+]1ccn(CCCC)c1.O=S(=O)([N-]S(=O)(=O)C(F)(F)F)C(F)(F)F     speed of sound                 1184

###

Examples of molecules with documented speed of sound follow.
# condition: 313.15 K; 101.33 kPa; Liquid; Sing-around technique in a fixed-path interferometer
Numbers after ± are expanded uncertainties.
measured_endpoint: speed of sound

> print(dat)
                              smiles.string  measured.endpoint  experimental.result
1  CCCCC[n+]1ccn(CCCC)c1.O=S(=O)([N-]S(=O)(=O)C(F)(F)F)C(F)(F)F     speed of sound       1179.6 ± 5 m/s
2  CCCCn1cc[n+](C(CC)CC)c1.O=S(=O)([N-]S(=O)(=O)C(F)(F)F)C(F)(F)F     speed of sound       1177.6 ± 5 m/s
3  CCCC[n+]1ccn(C2CCCC2)c1.O=S(=O)([N-]S(=O)(=O)C(F)(F)F)C(F)(F)F     speed of sound       1235.3 ± 5 m/s
4  CCCCn1cc[n+](CCC(C)C)c1.O=S(=O)([N-]S(=O)(=O)C(F)(F)F)C(F)(F)F     speed of sound         1183 ± 5 m/s

###

Examples of compounds with documented molar heat capacity at constant pressure follow.
# assay: molar heat capacity at constant pressure
# condition: 338.15 K; 101.33 kPa; Liquid; DSC
Numbers after ± are expanded uncertainties.
measured_endpoint: molar heat capacity at constant pressure

> print(dat)
                              smiles.string                         measured.endpoint  experimental.result
1  CCCCn1cc[n+](CCC(C)C)c1.O=S(=O)([N-]S(=O)(=O)C(F)(F)F)C(F)(F)F  molar heat capacity at constant pressure  716.58 ± 28 J/K/mol
2  CCCC[n+]1ccn(C2CCCC2)c1.O=S(=O)([N-]S(=O)(=O)C(F)(F)F)C(F)(F)F  molar heat capacity at constant pressure  682.34 ± 26 J/K/mol
3  CCCCC[n+]1ccn(CCCC)c1.O=S(=O)([N-]S(=O)(=O)C(F)(F)F)C(F)(F)F  molar heat capacity at constant pressure   717.2 ± 28 J/K/mol
4  CCCCn1cc[n+](C(CC)CC)c1.O=S(=O)([N-]S(=O)(=O)C(F)(F)F)C(F)(F)F  molar heat capacity at constant pressure  727.47 ± 28 J/K/mol

###

# assay: molar heat capacity at constant pressure
# condition: 346.15 K; 101.33 kPa; Liquid; DSC
Examples of molecules with documented molar heat capacity at constant pressure follow.
measured_endpoint: molar heat capacity at constant pressure (J/K/mol)

> print(dat)
                              smiles.string  experimental.result
1  CCCCn1cc[n+](CCC(C)C)c1.O=S(=O)([N-]S(=O)(=O)C(F)(F)F)C(F)(F)F               722.24
2  CCCCn1cc[n+](C(CC)CC)c1.O=S(=O)([N-]S(=O)(=O)C(F)(F)F)C(F)(F)F               733.37
3  CCCC[n+]1ccn(C2CCCC2)c1.O=S(=O)([N-]S(=O)(=O)C(F)(F)F)C(F)(F)F               688.45
4  CCCCC[n+]1ccn(CCCC)c1.O=S(=O)([N-]S(=O)(=O)C(F)(F)F)C(F)(F)F               722.48
